Measured inhibition of SARS-CoV-2 cytopathic effect accompanies every entry in the list below.
- System: Vero E6 infected with SARS-CoV-2
- protocol-text: inhibition of SARS-CoV-2 cytopathic effect; higher = more antiviral protection, active = above 15
- test-context: 833.33 nM; 48 h
test-readout: inhibition of SARS-CoV-2 cytopathic effect (%)

>  <molecule>
CS(=O)(=O)OCCCCOS(C)(=O)=O

>  <recorded-measurement>
-3.78

$$$$
>  <molecule>
O=C(O)CNC(=O)c1ccccc1

>  <recorded-measurement>
1.76

$$$$
>  <molecule>
CCCN(CCC)S(=O)(=O)c1ccc(C(=O)O)cc1

>  <recorded-measurement>
-2.63

$$$$
>  <molecule>
CNCCc1ccc(O)c(O)c1 [deoxyepinephrine]

>  <recorded-measurement>
-0.04

$$$$
>  <molecule>
CCCCCCCCCCCCCCOC(=O)c1cccnc1 [myristyl-nicotinate]

>  <recorded-measurement>
1.76

$$$$
>  <molecule>
Cc1ccc(CCCO)c(NCc2ccc3nc(NCCCN4CCOCC4)n(Cc4nc(C)ccc4O)c3c2)c1

>  <recorded-measurement>
-1.09

$$$$
>  <molecule>
O=C(O)c1ccccc1Nc1cccc(OCc2ccc3ccccc3n2)c1

>  <recorded-measurement>
0.3

$$$$
>  <molecule>
N.N.O=C([O-])C[O-].[Pt+2]

>  <recorded-measurement>
-1.21

$$$$
>  <molecule>
COc1cc(N2CCC(N)CC2)ccc1Nc1ncc(Cl)c(-c2c[nH]c3ccccc23)n1

>  <recorded-measurement>
-3.58

$$$$
>  <molecule>
COC(=O)/C=C/C(=O)N[C@@H]1CC[C@@]2(O)[C@H]3Cc4ccc(O)c5c4[C@@]2(CCN3CC2CC2)[C@H]1O5

>  <recorded-measurement>
1.68

$$$$
>  <molecule>
CN[C@@H](C)C(=O)N[C@H]1CCCC[C@H]2CC[C@@H](C(=O)N[C@@H](c3ccccc3)c3cn(CCCCc4ccc(CCCCn5cc([C@@H](NC(=O)[C@@H]6CC[C@@H]7CCCC[C@H](NC(=O)[C@H](C)NC)C(=O)N76)c6ccccc6)nn5)cc4)nn3)N2C1=O

>  <recorded-measurement>
-4.99

$$$$
>  <molecule>
CNC(=O)c1nn(C)c2c1C(C)(C)Cc1cnc(Nc3ccc(N4CCN(C)CC4)cc3)nc1-2

>  <recorded-measurement>
-4.6

$$$$
>  <molecule>
OC(CCN1CCCCC1)(c1ccccc1)c1ccccc1

>  <recorded-measurement>
-9.56

$$$$
>  <molecule>
C[C@]1(COc2ccc(N3CCC(Oc4ccc(OC(F)(F)F)cc4)CC3)cc2)Cn2cc([N+](=O)[O-])nc2O1

>  <recorded-measurement>
2.83

$$$$
>  <molecule>
C[S+]([O-])CCCCN=C=S (stereo not drawn)

>  <recorded-measurement>
-3.35

$$$$
>  <molecule>
NS(=O)(=O)c1ccc(-n2nc(C(F)(F)F)cc2-c2ccc(Cl)cc2)cc1

>  <recorded-measurement>
-0.43

$$$$
>  <molecule>
c1cnc(N2CCN(Cc3ccc4c(c3)OCO4)CC2)nc1

>  <recorded-measurement>
-0.64

$$$$
>  <molecule>
C=CCN1CC[C@]2(C)c3cc(O)ccc3C[C@H]1[C@H]2C

>  <recorded-measurement>
0.86

$$$$
